Source: patent US20240084011A1

Below, each entry is listed alongside its reported Kd.
test system: recombinant human CTLA-4 protein (human) (UniProt P16410)
Sequence (P16410 36-161 limits assumed): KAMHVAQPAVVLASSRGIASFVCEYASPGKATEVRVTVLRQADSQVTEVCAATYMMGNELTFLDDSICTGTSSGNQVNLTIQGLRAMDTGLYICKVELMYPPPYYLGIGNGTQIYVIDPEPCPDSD
assay notes: SPR (Pioneer FE, OneStep), 25 C; 3xFLAG scFv captured by anti-FLAG M2, human CTLA-4 as analyte
Show the value, then the unit it is measured in.

Recorded Kd, per entry:
binder	Kd
78-24D9 scFv (scFv, part only; not given: Linker, domain order, 3xFLAG tag, V domains shown, not shown: another chain or arm of the molecule; small tags and cut ends) VH: EVQLVESGGGLVQPGGSLRLSCAASGFTFSSSSMHWVRQAPGKGLEWVSGISGWGGSTSYADSVKGRFTISRDNSKNTLYLQMNSLRAEDTAVYYCARYLMSFNLTRTGWFDVWGQGTLVTVSS VL: DIQMTQSPSSLSASVGDRVTITCQASQDIANYLNWYQQKPGKAPKLLIYDASNLETGVPSRFSGSGSGTDFTFTISSLQPEDIATYYCQQSDAWPWTFGQGTKVEIK	1180 pM
78-8D10 scFv (scFv, part only; not given: Linker, domain order, 3xFLAG tag, V domains shown, not shown: another chain or arm of the molecule; small tags and cut ends) VH: MEVQLVESGGGLVQPGGSLRLSCAASGFTFSSYVMHWVRQAPGKGLEWVSAISWSGRGTYYADSVKGRFTISRDNSKNTLYLQMNSLRAEDTAVYYCARGRLFGLALYGEAFDVWGQGTLVTVSS VL: DIQMTQSPSSLSASVGDRVTITCQASKDISNYLNWYQQKPGKAPKLLIYDASNLETGVPSRFSGSGSGTDFTFTISSLQPEDIATYYCQQFNSFPLTFGQGTKVEIK	580 pM

Would you kindly look at the next entry?
Any idea what its Kd is? The binder is 78-8D22 scFv (scFv, part only; not given: Linker, domain order, 3xFLAG tag, V domains shown, not shown: another chain or arm of the molecule; small tags and cut ends) VH: EVQLVESGGGLVQPGGSLRLSCAASGFTFSSYVMHWVRQAPGKGLEWVSAISWSGSGTYYADSVKGRFTISRDNSKNTLYLQMNSLRAEDTAVYYCARGRLFGLARYGEAFDVWGQGTLVTVSS VL: DIQMTQSPSSLSASVGDRVTITCQASKDISNYLNWYQQKPGKAPKLLIYDASNLETGVPSRFSGSGSGTDFTFTISSLQPEDIATYYCQQFNSFALTFGQGTKVEIK
160 pM
